# ASSAY_TARGET: T1, Nat1 (LTIITLE) (also: TFA salt)
# T1 peptide: LTIITLE
# MEASUREMENT_PROTOCOL: cell-based or functional assay
Non-standard residues stand in square brackets, D forms with d. No end group written: not given here. Phg = N[C@H](C(=O)O)c1ccccc1
Lab note: compare IC50, Thiofiavin T aggregation assay with 300 nM, writing criterion met if less and criterion not met if equal or more.

// below: answered binders
* [dY][dQ][dW][dR][dY][dR][dR] [yqwryrr] | criterion met
* IRLRRYR | criterion met
* LYIRYLR | criterion met
* IR[Phg]RRYR [Ile-Arg-Phg-Arg-Arg-Tyr-Arg] | criterion met
* [dK][dF][dR][dF][dY][dH][dR] [kfrfyhr] | criterion met

Take the binder [dA][dW][dR][dW][dH][dR][dR] [awrwhrr] and say whether its IC50, Thiofiavin T aggregation assay is less than 300 nM. criterion met

Take the binder TYIYRQR and say whether its IC50, Thiofiavin T aggregation assay is less than 300 nM. criterion not met

Take the binder [dR][dW][dH][dW][dH][dW][dR] [rwhwhwr] and say whether its IC50, Thiofiavin T aggregation assay is less than 300 nM. criterion met

Take the binder [dR][dF][dH][dY][dF][dR][dK] [rfhyfrk] and say whether its IC50, Thiofiavin T aggregation assay is less than 300 nM. criterion met

Take the binder [dF][dF][dR][dF][dH][dH][dR] [ffrfhhr] and say whether its IC50, Thiofiavin T aggregation assay is less than 300 nM. criterion met

Take the binder LFIKYHR and say whether its IC50, Thiofiavin T aggregation assay is less than 300 nM. criterion met

Take the binder YYIRTYH and say whether its IC50, Thiofiavin T aggregation assay is less than 300 nM. criterion not met

Take the binder ALIKYHR and say whether its IC50, Thiofiavin T aggregation assay is less than 300 nM. criterion not met

Attribution: patent US20200062804A1
